These measurements were taken from PubChem BioAssay AID624330.

Target: Rac GTPase-activating protein 1 (Homo sapiens) (UniProt Q9H0H5)
Sequence (Q9H0H5 whole entry, looked up): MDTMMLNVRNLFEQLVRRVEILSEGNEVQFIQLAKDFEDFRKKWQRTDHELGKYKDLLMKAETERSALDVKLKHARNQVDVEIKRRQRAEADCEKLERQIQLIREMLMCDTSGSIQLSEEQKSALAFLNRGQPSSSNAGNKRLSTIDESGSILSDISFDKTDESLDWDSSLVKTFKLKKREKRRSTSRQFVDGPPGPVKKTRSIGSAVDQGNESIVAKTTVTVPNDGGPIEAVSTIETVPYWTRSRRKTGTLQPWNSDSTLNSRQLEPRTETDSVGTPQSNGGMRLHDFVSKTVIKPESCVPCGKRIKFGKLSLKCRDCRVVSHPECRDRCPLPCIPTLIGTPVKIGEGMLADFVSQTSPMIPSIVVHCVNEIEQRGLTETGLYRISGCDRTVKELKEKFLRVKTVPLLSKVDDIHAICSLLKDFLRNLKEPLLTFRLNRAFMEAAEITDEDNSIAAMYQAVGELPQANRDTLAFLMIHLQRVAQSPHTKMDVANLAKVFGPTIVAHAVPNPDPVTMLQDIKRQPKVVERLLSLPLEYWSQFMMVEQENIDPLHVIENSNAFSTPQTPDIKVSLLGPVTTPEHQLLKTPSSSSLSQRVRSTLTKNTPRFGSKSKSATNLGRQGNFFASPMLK
Test: blockers of MgcRacGAP-driven Rac1 GTP hydrolysis – biochemical, ADP Hunter fluorescence, primary and confirmatory, confirmation (AID 624330);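 also: fluorescence reports GDP produced by GAP-driven GTP hydrolysis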
Details: MgcRacGAP-stimulated Rac1 GTP hydrolysis, at 30 µM, active compounds read high, GST-tagged Rac1 F28L mutant substrate
The whole screen tested about 340,000 compounds, of which about 2,100 (0.62%) were called active. The list is a sample of the results. Entries with a potency or affinity are not part of this list.
test_readout: inhibition (%)

>>> value("COc1cccc(-c2cc(C(=O)NC3CCCCC3)no2)c1")
6.22
>>> value("CC(=O)Nc1nc2c(s1)CCc1ccccc1-2")
8.9
>>> value("CCc1cccc(C)c1NC(=O)c1cccc(N(C)C)c1")
23.8
>>> value("COc1ccc2cc(OCC(=O)NNC(=O)Nc3ccc(OC)c(OC)c3)ccc2c1")
17.7
>>> value("O=C1C(O)=C(O)C(=O)c2ccccc21")
-6.63
>>> value("O=S(=O)(c1ccccc1Cl)N1CCCC1c1nc(-c2cccc(Cl)c2)no1 (stereo not given)")
2.74
>>> value("O=C(NCc1cccc(F)c1)C1CCC(=O)N(CCc2cccc(F)c2)C1 (stereo not given)")
0.03
>>> value("Cc1ccc(S(=O)(=O)c2c(COC(=O)c3ccccc3Cl)c(-c3ccccc3)nn2C)cc1")
4.7
>>> value("CC[n+]1cc(C)ccc1/C=C/c1ccc(N(C)C)cc1")
7.19
>>> value("O=C1C(Cl)=C(Nc2ccc(O)cc2)C(=O)c2ccccc21")
27.1
>>> value("Nc1nc2c(s1)COc1ccccc1-2")
4.85
>>> value("CCOC(=O)C(NC(=O)Nc1ccc(F)cc1F)(Oc1ccc(F)cc1)C(F)(F)F (stereo not given)")
7.05
>>> value("COc1ccc2c(C)cc3nncn3c2c1")
5.43
>>> value("COc1cc2[nH]c(=S)nc(NCCC(C)C)c2cc1OC")
20.9
>>> value("Cc1ccn2cc(CCNC(=O)CC3CCCCC3)nc2c1")
16
>>> value("C=CCN1C(=O)CS/C1=N\\S(=O)(=O)c1ccc(Cl)cc1")
-1.54
>>> value("CC(C)N(Cc1nccn1C)C(=O)c1ccc2oc(CCCc3ccccc3)nc2c1")
-4.5
>>> value("O=C(NCc1cccc(Cl)c1)c1ccc(CS(=O)Cc2ccccc2Cl)o1 (stereo not given)")
-7.5
>>> value("CC[n+]1ccccc1/C=C/c1ccc(N(C)C)cc1")
10.2
>>> value("CN1/C(=C/c2cc[n+](C)c3ccccc23)C=Cc2ccccc21")
31.4
>>> value("CC(N=c1ccccn1C(=O)Nc1cccc(C(F)(F)F)c1)c1ccco1 (stereo not given)")
2.17
>>> value("COC(=O)c1ccc(NC(=O)c2ccc3nsnc3c2)cc1")
2.71
>>> value("COc1cc(CC(=O)NCc2ccc3c(c2)OCO3)cc(OC)c1OC")
4.17
>>> value("CCC(Oc1ccccc1)C(=O)Nc1ccccc1N1CCCC1 (stereo not given)")
7.77
>>> value("COC(=O)c1ccc(NC(=O)c2ccc3nc(C)sc3c2)cc1")
-0.39
>>> value("CC(OC(=O)c1ccc(Cl)c([N+](=O)[O-])c1)C(=O)N1CCN(Cc2ccccc2)CC1 (stereo not given)")
3.69
>>> value("COc1ccc(/C(C)=N/NC(=O)CNC(=O)/C=C\\c2ccco2)cc1")
1.11
>>> value("CCCOc1ccc(/C(O)=C2/C(=O)C(=O)N(CCCn3ccnc3)C2c2ccco2)cc1 (stereo not given)")
7.22
>>> value("Cc1cccc(CSC2=NCCN2C(=O)c2ccc(S(=O)(=O)N(C)C)cc2)c1")
4.49
>>> value("COC/C=C/C1=CC2=CC(=O)C(C)(OC(=O)c3cnc4ccccc4n3)C(=O)C2=CN1Cc1ccco1 (stereo not given)")
11
>>> value("CN1C=C/C(=C\\c2cc[n+](C)c3ccccc23)c2ccccc21")
-0.62
>>> value("O=C(CCC(=O)Nc1ccc(F)cc1)N/N=C/c1cccnc1")
7.44
>>> value("COc1ccc(CCNc2nc(=S)[nH]c3cc(OC)c(OC)cc23)cc1OC")
39.9
>>> value("Cc1ccc(S(=O)(=O)/N=C2\\C=C(NS(=O)(=O)c3ccccc3)C(=O)c3ccccc32)cc1")
2.77
>>> value("CCn1c(C)cc(/C=C2/SC(=O)N(CC(=O)N3CCCC3)C2=O)c1C")
8.19
>>> value("CCCn1c(N2CCN(C(=O)N3CCCCC3)CC2)nc2ccccc21")
-9.24
>>> value("CN(C(=O)c1cccc(C#CC(C)(C)O)c1)C1CCCN(Cc2ccccc2F)C1 (stereo not given)")
-6.83
>>> value("CCN(CC)c1ccc(S(=O)(=O)N2CCOCC2)cc1NC(=O)C1CC1")
6.61
>>> value("COc1cccc(CNCc2ccc3c(c2)OCO3)c1")
31.8
>>> value("O=C(Nc1ccc(Cl)cc1)c1ccc2nsnc2c1")
-0.42
>>> value("COc1ccc(NC(=O)CNC(c2ccccc2)c2ccccc2)cc1Cl")
5.6
>>> value("COCC1CCCCC1OS(N)(=O)=O (stereo not given)")
10.2
>>> value("Cc1ccc(C(C(=O)NC2CCCCC2)N(Cc2ccco2)C(=O)Cc2c[nH]c3ccccc23)o1 (stereo not given)")
9.31
>>> value("C/C(=N/NC(=O)CNC(=O)/C=C/c1ccco1)c1ccc(Cl)cc1")
18.5
>>> value("COc1ccc2c(c1)-c1nc(NC(=O)c3ccco3)sc1CC2")
8.71

###

Molecular target: Rac GTPase-activating protein 1 (Homo sapiens) (UniProt Q9H0H5)
Experiment: blockers of MgcRacGAP-driven Rac1 GTP hydrolysis – biochemical, ADP Hunter fluorescence, primary and confirmatory, confirmation (AID 624330);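 also: fluorescence reports GDP produced by GAP-driven GTP hydrolysis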
Settings: MgcRacGAP-stimulated Rac1 GTP hydrolysis, at 30 µM, active compounds read high, GST-tagged Rac1 F28L mutant substrate
Hit rate of the full screen: of about 340,000 compounds, about 2,100 (0.62%) were called active. Not all results are given here. Entries with a potency or affinity are not part of this list.
inhibition by entry:
test_readout: inhibition

>>> value("CC(Cn1cncn1)C(=O)N1CCN(S(=O)(=O)c2ccccc2)CC1 (stereo unspecified)")
"5.09% (inactive)"
>>> value("CC(C)(C)S(=O)(=O)N1C[C@H]2CC/C=C\\C/C(c3ccccc3)=C\\2[C@@H]1CCO")
"2.11% (inactive)"
>>> value("O=c1[nH]c2c(s1)C(c1ccc(O)cc1)C1C3CCC(C3)C1S2 (stereo unspecified)")
"11.5% (inactive)"
>>> value("CCOC(=O)c1c(NC(N)=O)sc(C)c1C")
"1.42% (inactive)"
>>> value("CCOC(=O)Nc1sc(C)c(C)c1C(=O)OCC")
"-8.16% (inactive)"
>>> value("CCCCN(C(=O)c1cc(CN2C(=O)c3ccccc3C2=O)ccc1OC)c1c(N)n(CC(C)C)c(=O)[nH]c1=O")
"3.78% (inactive)"

###

Target: Rac GTPase-activating protein 1 (Homo sapiens) (UniProt Q9H0H5)
Test: blockers of MgcRacGAP-driven Rac1 GTP hydrolysis – biochemical, ADP Hunter fluorescence, primary and confirmatory, confirmation (AID 624330);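 also: fluorescence reports GDP produced by GAP-driven GTP hydrolysis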
Details: MgcRacGAP-stimulated Rac1 GTP hydrolysis, at 30 µM, active compounds read high, GST-tagged Rac1 F28L mutant substrate
Among all 340,000 compounds or so, about 2,100 (0.62%) were called active. Only a sample is shown. Measured potencies and affinities stand elsewhere.
Each entry below carries its recorded inhibition.
test_readout: inhibition (%)

>>> value("O=CNc1ccccc1Oc1ccccc1")
8.55
>>> value("O=C(CN1C(=O)c2ccccc2C1=O)Nc1ccccc1")
1.35
>>> value("COc1ccc(COC(=O)N/N=C/c2cccs2)cc1")
0.62
>>> value("Cc1ccc2ccc(C(Nc3cccc(C(F)(F)F)c3)c3cccnc3)c(O)c2n1 (stereo unspecified)")
10.8
>>> value("CCOc1ccc(NC(=O)CCN2C(=O)c3cccc([N+](=O)[O-])c3C2=O)cc1")
3.27
>>> value("CN1CC(=O)N(CC(=O)NCc2ccc(F)cc2)c2ccccc2C1=O")
1.75

###

Overview of recorded inhibition for various compounds
Target: Rac GTPase-activating protein 1 (Homo sapiens) (UniProt Q9H0H5)
Test: blockers of MgcRacGAP-driven Rac1 GTP hydrolysis – biochemical, ADP Hunter fluorescence, primary and confirmatory, confirmation (AID 624330);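 also: fluorescence reports GDP produced by GAP-driven GTP hydrolysis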
Conditions: MgcRacGAP-stimulated Rac1 GTP hydrolysis, at 30 µM, active compounds read high, GST-tagged Rac1 F28L mutant substrate
Screen size: about 340,000 compounds; about 2,100 (0.62%) were called active. The list is a sample of the results. Entries with a potency or affinity are not part of this list.
test_readout: inhibition

>>> value("CCn1cc(C(=O)Nc2ccc(NC(=O)c3ccco3)cc2)c(=O)c2ccc(C)nc21")
"0.62% (inactive)"
>>> value("COc1ccc(C2C3=C(CC(C)(C)CC3=O)Oc3ncn4nc(-c5cccnc5)nc4c32)cc1 (stereo unspecified)")
"1.38% (inactive)"
>>> value("CCS(=O)(=O)N1CCN(C2Cc3ccccc3C2)CC1")
"13.9% (inactive)"
>>> value("COc1ccc(CN2C(=O)c3ccccc3C2=O)cc1")
"-0.09% (inactive)"
>>> value("CCS(=O)(=O)N1CCN(C2CCC(C)CC2)CC1 (stereo unspecified)")
"17.9% (inactive)"
>>> value("O=S(=O)(Cc1ccccc1)N1CCN(C2Cc3ccccc3C2)CC1")
"9.97% (inactive)"
>>> value("COc1ccc(S(=O)(=O)N2CCN(C(C)C(=O)Nc3ccc(C(C)C)cc3)CC2)cc1 (stereo unspecified)")
"5.24% (inactive)"
>>> value("CN1CCN(CC(=O)Nc2ccccc2C(F)(F)F)CC1")
"28.9% (inactive)"
>>> value("COc1ccc(CNC(=O)C(=O)NCC2OCCCN2S(=O)(=O)c2cccs2)cc1 (stereo unspecified)")
"8.22% (inactive)"
>>> value("CC1CCC(N2CCN(S(=O)(=O)Cc3ccccc3)CC2)CC1 (stereo unspecified)")
"7.86% (inactive)"
>>> value("COc1ccc(NC(=O)c2ccc3c(c2)C(=O)N(Cc2cccnc2)C3=O)cc1")
"9.43% (inactive)"
